# System: HeLa
# assay_summary: Antiproliferative activity against human HeLa cells after 48 hrs by CellTiter 96 aqueous one solution assay
# Type: functional, cell-based
pIC50: −log10 of the molar value.
pIC50 values by entry
property_label: pIC50

>>> print(df.to_string())
                               entry_smiles  assay_target  test_result
0  CC[n+]1c2c(n(C(C)C)c1/C=C/c1ccc(O)cc1)C(=O)c1ccccc1C2=O          HeLa       < 4.52
1  CC[n+]1c2c(n(C(C)C)c1/C=C/c1ccc(O)c(OC)c1)C(=O)c1ccccc1C2=O          HeLa       < 4.52
2  CC[n+]1c2c(n(C3CC3)c1/C=C/c1cc(OC)c(OC)c(OC)c1)C(=O)c1ccccc1C2=O          HeLa       < 4.52
3  CC[n+]1c2c(n(C3CC3)c1/C=C/c1ccc(OC)c(OC)c1)C(=O)c1ccccc1C2=O          HeLa         4.87

----------
Parameter pIC50: see the listing below.
# System: PC-3
# assay_summary: Antiproliferative activity against human PC3 cells after 48 hrs by CellTiter 96 aqueous one solution assay
# Format: functional, cell-based
# applied_conditions: PC-3, 48 h
pIC50: −log10 of the molar value.
property_label: pIC50

In [3]: df
Out[3]:
                               entry_smiles  assay_target  property_label  test_result
0  COCC[n+]1c2c(n(Cc3ccccc3)c1/C=C/C=C/c1ccccc1)C(=O)c1ccccc1C2=O          PC-3           pIC50         6.67
1  CC[n+]1c2c(n(C(C)C)c1/C=C/c1ccc(O)cc1)C(=O)c1ccccc1C2=O          PC-3           pIC50         7.14
2  CC[n+]1c2c(n(C3CC3)c1/C=C/c1cc(OC)c(OC)c(OC)c1)C(=O)c1ccccc1C2=O          PC-3           pIC50         6.84
3  COCC[n+]1c2c(n(Cc3ccccc3)c1/C=C/c1cccc(O)c1)C(=O)c1ccccc1C2=O          PC-3           pIC50         7.00
4  CC[n+]1c2c(n(C3CC3)c1/C=C/c1ccc(O)c(OC)c1)C(=O)c1ccccc1C2=O          PC-3           pIC50         7.42
5  CC[n+]1c2c(n(C3CC3)c1/C=C/c1ccc(OC)c(OC)c1)C(=O)c1ccccc1C2=O          PC-3           pIC50         7.18
6  CC[n+]1c2c(n(C(C)C)c1/C=C/c1c[nH]c3ccccc13)C(=O)c1ccccc1C2=O          PC-3           pIC50         7.15
7  CC[n+]1c2c(n(C3CC3)c1/C=C/c1c[nH]c3ccccc13)C(=O)c1ccccc1C2=O          PC-3           pIC50         7.28
8  COCC[n+]1c2c(n(Cc3cccc(OC)c3)c1/C=C/c1cccc(O)c1)C(=O)c1ccccc1C2=O          PC-3           pIC50         6.65
9  CC[n+]1c2c(n(C3CC3)c1/C=C/c1ccccc1)C(=O)c1ccccc1C2=O          PC-3           pIC50         7.42
